- System: SK-MEL-2 melanoma
- ASSAY_COMMENT: NCI tumour cell line growth inhibition, 48 h
Give measured TGI for each item. Keep answers brief.

Consider Nc1ncn2c(n1)nc1ccccc12 . Its measured TGI is > 100 µM

Noted for NCC(O)CNC(=O)c1ccc(-c2ccc(-c3ccc(C(=O)NCC(O)CN)cc3)o2)cc1 (stereo not drawn) : its TGI reads > 100 µM

The value of TGI measured for the compound CN(C)C(=N/O)/C(=N\O)N(C)C turned out to be > 100 µM

----------
- Test system: XF 498 CNS
- ASSAY_COMMENT: NCI tumour cell line growth inhibition, 48 h
OBSERVABLE: TGI (µM)
Lab book: enter the figure in µM, no units written.

Measured TGI, O=C1C(c2ccc(Br)cc2)=[N+]([O-])c2ccccc21 : 31.3

Record O=C(c1ccc(Cl)cc1)N(C(=S)N1CCN(c2ccccn2)CC1)C1CCCCC1 , field TGI: 80.3

# TGI of N/C(=N\N=C\c1ccc(C(F)(F)F)cc1)NO = 51

----------
- Test system: DMS 114 small cell lung
- ASSAY_COMMENT: NCI tumour cell line growth inhibition, 48 h
OBSERVABLE: TGI

// TGI lookup, compound = O=C1N2Cc3c4ccc5c3CN3C(=O)N6Cc7c(ccc(c7CN1C6(c1ccccc1)C23c1ccccc1)OCCOCCNCCOCCO4)OCCOCCNCCOCCO5 (configuration not stated) , result: > 100 µM

Please fill in: TGI reported for Cc1ccc(S(=O)(=O)SC(C)(C)C)cc1 = 35.6 µM

Item: C[N+](C)(C)CC(=O)N/N=C(/C(=O)Nc1ccc(Br)cc1)C1C(=O)NC(=O)NC1=O | TGI: > 100 µM

Recorded TGI (compound Nc1ccc(C(=O)N/C(=C\c2cccc([N+](=O)[O-])c2)c2nc3[nH]c(=S)[nH]c(=O)c3[nH]2)cc1 ): > 100 µM

Input O=C(c1ccccc1)C1S(=O)(=O)OCCOS1(=O)=O . Output TGI: > 100 µM

Entry c1ccc2c3c([nH]c2c1)[C@H]1C2CCCCN2CN1CC3 (some centres not stated) ; TGI = > 100 µM

Measured TGI of CCOC(=O)C(=O)CC1=Nc2ccccc2SC(c2cccc(C)c2)C1 (configuration not stated) : 35 µM

----------
- Test system: NCI-H226 lung
- ASSAY_COMMENT: NCI tumour cell line growth inhibition, 48 h
OBSERVABLE: TGI (µM)
The answer is to be given in µM; state only the numeric part.

Lookup result for O=C(CCC=C(S(=O)(=O)c1ccccc1)S(=O)(=O)c1ccccc1)c1ccccc1 ; measured TGI: 37.3

Lookup result for CC1(C)CNc2cc(NC(=O)c3cccnc3NCc3ccncc3)ccc21 ; measured TGI: 46.1

Reported TGI of C=C(NC(=O)C(=C)NC(=O)c1csc(C2=NC3c4csc(n4)C4NC(=O)c5csc(n5)C(C(C)(O)C(C)O)NC(=O)C5CSC(=N5)/C(=C/C)NC(=O)C(C(C)O)NC(=O)c5csc(n5)C3(CC2)NC(=O)C(C)NC(=O)C(=C)NC(=O)C(C)NC(=O)C(C(C)CC)NC2C=Cc3c(C(C)O)cc(nc3C2O)C(=O)OC4C)n1)C(N)=O (configuration not stated) : 3.8

The compound O=S(=O)(NNc1ccccc1)c1ccccc1 showed TGI equal to 18.5

Query CCCCCCCCCCCCCCC(O)C[N+](C)(CCO)CCO (configuration not stated) yields TGI of 5.63

Record Cc1cc(S(=O)(=O)Nc2nc3ccccc3nc2-c2ccc(Cl)cc2)c(S)cc1Cl . Reported TGI: 47.9

Sure, the documented TGI for CN(CCNC(=O)c1cn(C)c2c1ccc1cc(Cl)c(Cl)cc12)CCNC(=O)c1cn(C)c2c1ccc1cc(Cl)c(Cl)cc12 is 96

// Cc1ccccc1NC(=O)c1sc2nc(C)c(C(=O)/C=C/c3ccccc3)cc2c1N : TGI value = 2.35

TGI recorded for this compound, Cc1cccc(N2C(=O)C3c4[nH]c5ccccc5c4C4CCC(C(C)(C)C)CC4C3C2=O)c1 (configuration not stated) , is 34.1

Field TGI (entry Cn1cc(-c2ccc3cc(-c4ccc(CC(=O)Nc5cc(C(C)(C)C)on5)cc4)cnc3c2)cn1 ) reads 34.6

Sample CNC(=O)c1c(NC(=O)c2ccc(C(C)(C)C)cc2)sc2c1CCC(=O)C2 ; TGI observed: 1.99

Reported TGI ( CCOC(=O)c1cc2c(cc1Cl)SC(=Nc1ccccc1)N(S(=O)(=O)c1ccc(Cl)cc1)S2(=O)=O ) = 28.2

Note to self: TGI recorded for O=C(/C=C\c1ccc([N+](=O)[O-])cc1)c1ccccc(=O)c1O was 6.7

Entry CC1CC[P+](c2ccccc2)(c2ccccc2)c2c1ccc1ccccc21 (configuration not stated) — recorded TGI = 62.8

Form: compound = CCC(C)Nc1ccc(N)cc1 (configuration not stated) ; TGI = 19

TGI reading for OC(COC(c1ccccc1)(c1ccccc1)c1ccccc1)C(O)CC1SCCS1 (configuration not stated) : 35.3

Form field TGI, entry Cc1cccc2nc3ccccc3c(Nc3ccc(NS(C)(=O)=O)cc3)c12 : 7.15

----------
- System: SR leukemia
- ASSAY_COMMENT: NCI tumour cell line growth inhibition, 48 h
OBSERVABLE: TGI

Short answer for COc1ccc(Cc2coc3ccccc3c2=O)cc1OC : TGI was > 100 µM

Field TGI (entry Cc1n[nH]c(=O)n1/N=C\c1ccccc1 ) reads > 100 µM

// recorded TGI for COC(=O)C1=C(O)[C@H](C(=O)OC)C2(O)C(C(=O)OC)[C@H](c3ccc(OC(=O)C(C)c4ccc(CC(C)C)cc4)cc3)C[C@@H]1[C@@H]2C(=O)OC (some centres undefined) : > 50 µM

Short answer for CCc1cccc(C)c1NC(=O)C(=O)CC(=O)c1ccc(Cl)s1 : TGI was > 100 µM

----------
- Test system: 786-0 renal
- ASSAY_COMMENT: NCI tumour cell line growth inhibition, 48 h; in the data active = GI50 below about 0.43 µM; inactive = the rest
Could you please pick one outcome from this set? active, inactive

In: Returns: the outcome recorded for Cc1csc2[n+]1-c1ccccc1N(C(=O)Nc1ccccc1)C(C)C2 (stereo unspecified) in this assay.
Out: inactive

In: Outcome logged for COc1ccc2c(c1)nc(C(=O)c1ccco1)c(C(F)(F)F)[n+]2[O-] in this assay:
Out: inactive

In: Which result was noted for this compound in the test: COc1cc(Nc2ncc(-c3ccccc3)o2)cc(OC)c1
Out: inactive

In: Tell me the assay call for COc1ncc(Nc2ncc([C@@H](C)N3CCN(S(C)(=O)=O)CC3)cc2-c2nc(C)nc(N)n2)cc1F please.
Out: active

In: Write down the call the test reported for this compound. Item: COc1cc(/C=N/Nc2ncnc3c2cnn3-c2ccccc2)ccc1O
Out: inactive

In: Returns: the outcome recorded for CCOCCCn1c2c(c3c(O)cccc31)C(=O)c1ccccc1-2 in this assay.
Out: inactive

----------
- System: M14 melanoma
- ASSAY_COMMENT: NCI tumour cell line growth inhibition, 48 h
Give measured TGI for each item. Keep answers brief.

The molecule COc1ccc(N=NC(=O)NC(CC(C)C)C(N)=O)cc1 (configuration not stated) showed TGI equal to > 100 µM

// field: TGI; key: COc1ccc2c(c1)[nH]c(=O)c1c3cccc(F)c3cn21 ; value = > 100 µM

// TGI lookup, molecule = O=C(O)c1ccc(C2=Cc3cc(Cl)ccc3OC2)cc1 , result: > 100 µM

Just so you know, measured TGI for C=C(NC(=O)C(=C)NC(=O)c1csc(C2=NC3c4csc(n4)C4NC(=O)c5csc(n5)C(C(C)(O)C(C)O)NC(=O)C5CSC(=N5)/C(=C/C)NC(=O)C(C(C)O)NC(=O)c5csc(n5)C3(CC2)NC(=O)C(C)NC(=O)C(=C)NC(=O)C(C)NC(=O)C(C(C)CC)NC2C=Cc3c(C(C)O)cc(nc3C2O)C(=O)OC4C)n1)C(N)=O (configuration not stated) came out at 3.17 µM

TGI in this record for COc1cc(OC)cc(-c2n/c(=C\c3c(O)[nH]c4ccc(OC)cc34)cc3c2=Nc2ccccc2-3)c1 : 4.18 µM

Kindly note the recorded TGI for O=C(c1ccc(Cl)cc1)N(C(=S)N1CCN(c2ccccn2)CC1)C1CCCCC1 , which is > 100 µM

The reported value for N/C(=N\N=C\c1ccc(C(F)(F)F)cc1)NO in terms of TGI is 29.2 µM

molecule NC(CCOCCP(=O)(O)O)C(=O)O (configuration not stated) , TGI observed: > 100 µM

Note to self: TGI recorded for O=C1C(c2ccc(Br)cc2)=[N+]([O-])c2ccccc21 was 29.8 µM

Reported TGI for NC1=Nc2cc(Cl)ccc2Sc2nc3ccccc3n21 was > 100 µM

What the record says about CC1CC/C(=C\c2ccc(F)cc2)C(=O)/C1=C/c1ccc(F)cc1 (configuration not stated) : TGI is 39.4 µM

Lab note: Nc1ncn2c(n1)nc1ccccc12 gave TGI of > 100 µM

The measured TGI associated with Clc1cccc(NN=Nc2ccc(-c3nc4ccccc4s3)cc2)c1 reads > 100 µM

Lab note: Cc1ccc(C2=C(C#N)C(N)OC3=C2COc2ccccc23)cc1 (configuration not stated) gave TGI of > 100 µM

Memo: COc1c(-c2nc3nc(N4CCN(C)CC4)ccc3[nH]2)cc(OC)c2c1nc(COC(C)=O)n2C , reported TGI: > 100 µM

The molecule listed as COc1ccc2c3c([nH]c2c1)CCN(CCCC(=O)c1ccc(F)cc1)C3 has a reported TGI of 28.9 µM

Sure, the documented TGI for CC1(C)CCC(C)(C)C1C(=O)NC(O)C(=O)O (configuration not stated) is > 100 µM

TGI recorded for this molecule, O=c1[nH]cc(Cl)c(=O)[nH]1 , is > 100 µM

Per the records, this molecule ( CCCCCCCCCCCCCCCCOP(=O)(O)OCC(N)C(=O)O (configuration not stated) ) has TGI equal to 46.5 µM

The measured TGI associated with CCOC(=O)C(NC(=O)c1ccccc1)(N1CCN(c2cc3c(cc2F)c(=O)c(C(=O)O)cn3CC)CC1)C(F)(F)F (configuration not stated) reads > 100 µM

The recorded TGI for entry Cc1ccc(C(=O)Nc2ccc(CP(=O)(O)O)cc2CP(=O)(O)O)cc1NC(=O)Nc1cc(C(=O)Nc2ccc(CP(=O)(O)O)cc2CP(=O)(O)O)ccc1C equals > 100 µM

Noted for O=C1CC(c2ccccc2)=Nc2ccccc2N1 : its TGI reads > 100 µM
